Where a name gives a salt, the structure may show the parent alone.
Readout: melting point

Briefly, melting point measured for CC(=O)Nc1ccccc1-c1ccc(N2CC3CCC(C2)N3C)nn1 (as salt: fumaric acid salt) : 219 to 222 °C

Briefly, melting point measured for CN1C2CCC1CN(c1cccc(-c3ccccc3)n1)C2 (as salt: fumaric acid salt) : 159 to 160 °C

Briefly, melting point measured for CN1C2CCC1CN(c1ccc(-c3cccnc3)nn1)C2 : 131 to 133 °C

Briefly, melting point measured for CN1C2CCC1CN(c1ccc(-c3ccccc3Cl)nn1)C2 (as salt: fumaric acid salt) : 192 to 200 °C

Briefly, melting point measured for CN1C2CCC1CN(c1ccc(-c3ccsc3)nn1)C2 [Compound E2] : 172 to 173 °C

Now look at this entry.
Briefly, melting point measured for CN1C2CCC1CN(c1ccc(-c3ccc(F)cc3)nn1)C2 : 164 to 165 °C
